target: full-length recombinant rat vitamin D receptor (Rattus norvegicus, UniProt P13053); construct: Full-length recombinant rat receptor was expressed in E. coli; histidine tag (C); assay: Vitamin D receptor binding, competition with [3H]-1,25(OH)2D3; conditions: full-length recombinant rat VDR; FIG. 1
Sequence (P13053 whole entry): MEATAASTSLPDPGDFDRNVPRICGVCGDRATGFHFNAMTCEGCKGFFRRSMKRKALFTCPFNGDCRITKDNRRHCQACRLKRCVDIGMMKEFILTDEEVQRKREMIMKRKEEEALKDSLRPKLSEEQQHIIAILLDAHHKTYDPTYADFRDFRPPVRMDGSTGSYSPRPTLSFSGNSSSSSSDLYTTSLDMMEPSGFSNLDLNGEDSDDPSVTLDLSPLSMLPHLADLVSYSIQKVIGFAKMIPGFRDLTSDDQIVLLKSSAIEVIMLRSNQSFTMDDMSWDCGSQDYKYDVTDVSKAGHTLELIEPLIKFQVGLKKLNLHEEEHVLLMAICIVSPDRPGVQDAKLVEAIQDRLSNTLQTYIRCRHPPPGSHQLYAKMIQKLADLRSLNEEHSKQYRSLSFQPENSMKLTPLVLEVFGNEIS
MEASURED PARAMETER: pKi
# pKi = -log10(concentration in molar units)

State, in one line, measured pKi of C=C1[C@H](O)CC(=C/C=C2\CCC[C@]3(C)[C@@H]([C@H](C)/C=C/C[C@H](C)O)CC[C@@H]23)C[C@H]1O
9.40
